Cited source for all entries: PubChem BioAssay (NCI)

System: SN12C renal
Test: NCI-60 one-dose screen, 48 h (100 = growth as untreated, 0 = no growth, -100 = all killed)
Details: 10 µM unless noted
About 83,000 compounds went through this panel and 20% of them were active in at least one assay; those are over-represented in the sample as a whole. *1 amine or outer side, *2 acyl side, *3 side chain or, on linkers, in order; H or OH if unused. Where a SMILES comes first, the peptide text is derived from it. Bridges are numbered along the chain shown (N, C = ends). Roman numbers before positions name the chains, in order. [ ]: non-standard residue; d: D form. Actinocin(1to9) = Cc1c2oc3c(C)ccc(C(=O)[*:2])c3nc-2c(C(=O)[*:1])c(N)c1=O; NMeV = CN[CH](C(=O)O)C(C)C; Sar = CNCC(=O)O
Parameter Measured: growth (%)
Enter your answer as a number in %; do not include the unit.

[
  {
    "Compound": "CN(C)c1ccc(/C=C/c2ccnc3ccccc23)cc1",
    "System Name": "SN12C renal",
    "Unit Annotation": "%",
    "growth": 36.2
  }
]

Query: So what's the measured growth for this one? CC(=O)c1c(O)c(C)c(O)c2c1OC1=CC(=O)C(C(C)=O)C(=O)C12C (configuration not stated)
Response: 143

Query: # lookup: growth of COc1ccc(NC(=O)/C(=C/N2C(=O)/C(=C/c3ccc(OC)c(OC)c3)NC2=S)C(C)=O)cc1
Response: 80.8

Query: Any idea what growth was measured for CCCOC(=O)c1nc(N(CC2CCCCC2)C(=O)NC)sc1/N=C/c1ccccc1 ?
Response: 15

Query: // returns reported growth for input CCC(C)C1NC(=O)C(NC(=O)c2c3nc4c(C(=O)NC5C(=O)NC(C(C)CC)C(=O)N6CCCC6C(=O)N(C)CC(=O)N(C)C(C(C)C)C(=O)OC5C)ccc(C)c4oc-3c(C)c(=O)c2N)C(C)OC(=O)C(C(C)C)N(C)C(=O)CN(C)C(=O)C2CCCN2C1=O (configuration not stated) (I: TIP[Sar][NMeV] / II: TIP[Sar][NMeV]; ester I:1-I:C, II:1-II:C; linker I:N-II:N via Actinocin(1to9); configuration not given here)
Response: 15.4

Query: Entry O=[N+]([O-])/C(=C/c1ccccc1)c1ccccc1 has what growth?
Response: 103

Query: Sample CCCN(CCC)C(=O)c1ccc(C)cc1 — what was its growth?
Response: 97.9
